Assay: Toxicity liver stage against HepG2, at 10uM
Format: cell-based
Set-up: test concentration 10 uM, cell line HepG2-A16-CD81EGFP
Settings: human, HepG2-A16-CD81EGFP cells; read-out: INHIBITION
Each entry below carries its recorded cytotoxicity at 10 µM.
Report the value in % with no unit label.

Some solved cases for reference:
{"columns": ["COMPOUND", "RESULT UNITS", "cytotoxicity at 10 µM"],
 "data": [
  ["CCN1CC(C(=O)NC(C)(C)C(=O)OC)CC1=O (configuration not stated)", "%", -143],
  ["CS(=O)(=O)N1CCN(C(=O)c2[nH]c3ccc(Cl)cc3c2Cl)CC1", "%", 24.6],
  ["CC(C)N(C)C[C@H]1OC[C@@H]2CCN(Cc3cccc(C#N)c3)C[C@@H]21", "%", 9.28],
  ["CCOC(=O)[C@H]1[C@@H](O)C(=O)N(C)C12CCN(C(=O)C(CC)CC)CC2", "%", -4.47],
  ["CC(C)CN1CCN(C)C(CCO)C1 (configuration not stated)", "%", 1.84],
  ["O=C(c1cccnc1N1CCCCC1)N1CCCC(n2ccnc2)C1 (configuration not stated)", "%", -14.4],
  ["Cc1nc(N2CCCC2)nc2c1CCN(C(=O)NC1CCCC1)CC2", "%", 3.8],
  ["Cn1ccc(CNC(=O)N2CCCC3(C2)OCCO3)c1", "%", 7.6],
  ["O=C(Cc1ccc(Cl)s1)Nc1ccc2c(c1)C(=O)NC2=O", "%", -7.19],
  ["Cc1cc(C(=O)N[C@H](C)c2onc(-c3cccnc3)c2C(=O)O)c(C)o1", "%", 1.47]
]}

Provide only the value of recorded cytotoxicity at 10 µM for COc1ccc(C)cc1C(C)NCc1cnnn1C (configuration not stated)
0.211

Provide only the value of recorded cytotoxicity at 10 µM for "Cc1cc(C(F)(F)F)n2nc(C3CCN(S(=O)(=O)N(C)C)CC3)cc2n1"
-2.88

Provide only the value of recorded cytotoxicity at 10 µM for CCN(CC)CC1CN(Cc2nccs2)Cc2nccn2C1 (configuration not stated)
1.13

Provide only the value of recorded cytotoxicity at 10 µM for "CNC(=O)c1cn2cc(-c3ccccc3Cl)n(CC=C(C)C)c(=O)c2n1"
-7.05

Provide only the value of recorded cytotoxicity at 10 µM for "O=C(CNC(=O)c1ccccc1I)NCc1ccccc1F"
1.16

====

Each entry below carries its recorded cytotoxicity at 10 µM.
Assay: Toxicity liver stage against HepG2, at 10uM
Type: cell-based
Set-up: test concentration 10 uM, cell line HepG2-A16-CD81EGFP
Conditions: human, HepG2-A16-CD81EGFP cells; read-out: INHIBITION
Report the value in % with no unit label.

Some solved cases for reference:
{"columns": ["COMPOUND", "MEASURE", "QUANTITATIVE RESULT"],
 "data": [
  ["CN(C)CCNc1ncccc1CNC(=O)Nc1cc(F)cc(F)c1", "cytotoxicity at 10 µM", 2.62],
  ["c1nc(N2CCCC2)ncc1CN1CCCC(CN2CCCCC2)C1 (configuration not stated)", "cytotoxicity at 10 µM", -5.45],
  ["CCOc1ccc(C(=O)N(Cc2cnn(C)c2)C(C)C)cc1", "cytotoxicity at 10 µM", 13.4]
]}

Provide only the value of recorded cytotoxicity at 10 µM for Cc1nc(CN2CCO[C@@H]3CC(COc4ccccn4)C[C@H]32)cs1 (some centres not stated)
8.57

Provide only the value of recorded cytotoxicity at 10 µM for CCc1ocnc1C(=O)N1CCCC1c1noc(C2CC2)n1 (configuration not stated)
-4.45

Provide only the value of recorded cytotoxicity at 10 µM for "COC(=O)CN1CCC(C(F)(F)F)CC1"
8.12

Provide only the value of recorded cytotoxicity at 10 µM for "Cc1ccc(NC2CCN(C(=O)CCCc3ccccn3)CC2)nn1"
16.4
